assay: Pharmacokinetics test using rats (brain permeability, blood and brain tissue by HPLC); type: in vivo, Sprague-Dawley rats; settings: Sprague-Dawley, rat, brain, iv, 10 mg/kg, i.v. 10 mg/kg, 30 min, under anaesthesia, nonfasting (plasma value from anaesthesia, fasting rats), individual animals, read-out: Brain/Plasma ratio
observable: Kp at 0.5 h

**Query** Reported Kp at 0.5 h for Cc1cccc(COc2nc(N)nc3nc[nH]c23)c1 : what is it?
**Result** 0.425

----------
assay: Pharmacokinetics test using rats (brain permeability, blood and brain tissue by HPLC); assay type: in vivo, Sprague-Dawley rats; conditions: Sprague-Dawley, rat, brain homogenate, iv, 10 mg/kg, i.v. 10 mg/kg, 30 min, under anaesthesia, fasting, average, read-out: Conc. HPLC (brain homogenate), Ave.
observable: concentration at 30 min (ng/mL)
One number for each entry, in ng/mL.

**Query** Reported concentration at 30 min for Cc1cccc(COc2nc(N)nc3nc[nH]c23)c1 : what is it?
**Result** 513

----------
assay: Pharmacokinetics test using rats (brain permeability, blood and brain tissue by HPLC); type: in vivo, Sprague-Dawley rats; settings: Sprague-Dawley, rat, brain homogenate, iv, 10 mg/kg, i.v. 10 mg/kg, 44 min, under anaesthesia, fasting, read-out: Conc. HPLC (concentration of compound in brain homogenate)
observable: concentration at 44 min (ng/mL)
Answers are plain numbers, in ng/mL.

**Query** Reported concentration at 44 min for Cc1ccc(COc2nc(N)nc3nc[nH]c23)cc1 : what is it?
**Result** 118

----------
assay: Pharmacokinetics test using rats (brain permeability, blood and brain tissue by HPLC); format: in vivo, Sprague-Dawley rats; details: Sprague-Dawley, rat, brain, iv, 10 mg/kg, i.v. 10 mg/kg, 30 min, under nonanaesthesia, fasting, average, read-out: Brain/Plasma ratio, Ave.
observable: Kp at 0.5 h

**Query** Reported Kp at 0.5 h for Cc1cccc(COc2nc(N)nc3nc[nH]c23)c1 [Compound 2, O^6-(3-methylbenzyl) guanine] : what is it?
**Result** 0.265

----------
assay: Pharmacokinetics test using rats (brain permeability, blood and brain tissue by HPLC); format: in vivo, Sprague-Dawley rats; settings: Sprague-Dawley, rat, brain homogenate, iv, 10 mg/kg, i.v. 10 mg/kg, 32 min, under anaesthesia, fasting, read-out: Conc. HPLC (concentration of compound in brain homogenate)
observable: concentration at 32 min (µg/mL)
Answers are plain numbers, in µg/mL.

**Query** Reported concentration at 32 min for Cc1ccc(COc2nc(N)nc3nc[nH]c23)cc1 : what is it?
**Result** 0.231

----------
experiment: Pharmacokinetics test using rats (brain permeability, blood and brain tissue by HPLC); assay type: in vivo, Sprague-Dawley rats; details: Sprague-Dawley, rat, brain, iv, 10 mg/kg, i.v. 10 mg/kg, 30 min, under nonanaesthesia, fasting, individual animals, read-out: Conc. brain
observable: concentration at 30 min

**Query** Reported concentration at 30 min for Cc1cccc(COc2nc(N)nc3nc[nH]c23)c1 [Compound 2, O^6-(3-methylbenzyl) guanine] : what is it?
**Result** 1400 ng/mL

----------
Assay: Pharmacokinetics test using rats (brain permeability, blood and brain tissue by HPLC)
Type: in vivo, Sprague-Dawley rats
Settings: Sprague-Dawley, rat, brain homogenate, iv, 10 mg/kg, i.v. 10 mg/kg, 30 min, under anaesthesia, nonfasting, individual animals, read-out: Conc. HPLC (concentration of compound in brain homogenate)
Description: Regarding O^6-(3-methylbenzyl) guanine (2) and O^6-(4-methylbenzyl) guanine (3) not labeled with ^11C synthesized by the above method (that is, cold), brain permeability was evaluated by the following method. After intravenous administration (10 mg/kg) of O^6-(3-methylbenzyl) guanine (2) or O^6-(4-methylbenzyl) guanine (3) to Sprague-Dawley rats, blood and brain tissues were collected after a predetermined time, and analyzed by HPLC.
observable: concentration at 30 min (ng/mL)
One number for each entry, in ng/mL.

**Query** Reported concentration at 30 min for Cc1cccc(COc2nc(N)nc3nc[nH]c23)c1 : what is it?
**Result** 784

----------
test: Pharmacokinetics test using rats (brain permeability, blood and brain tissue by HPLC); assay type: in vivo, Sprague-Dawley rats; settings: Sprague-Dawley, rat, plasma, iv, 10 mg/kg, average (n = 5), 30 min after i.v. 10 mg/kg of 2, rat under anaesthesia and fasting; other rats than brain sample; read-out: Conc. Plasma
observable: concentration at 30 min (ng/mL)
Numbers only, in ng/mL.

**Query** Reported concentration at 30 min for Cc1cccc(COc2nc(N)nc3nc[nH]c23)c1 : what is it?
**Result** 4450

----------
assay: Pharmacokinetics test using rats (brain permeability, blood and brain tissue by HPLC); assay type: in vivo, Sprague-Dawley rats; settings: Sprague-Dawley, rat, brain homogenate, iv, 10 mg/kg, i.v. 10 mg/kg, 30 min, under anaesthesia, nonfasting, average, read-out: Conc. HPLC (brain homogenate), Ave.
observable: concentration at 30 min

**Query** Reported concentration at 30 min for Cc1cccc(COc2nc(N)nc3nc[nH]c23)c1 [Compound 2, O^6-(3-methylbenzyl) guanine] : what is it?
**Result** 663 ng/mL

----------
test: Pharmacokinetics test using rats (brain permeability, blood and brain tissue by HPLC); type: in vivo, Sprague-Dawley rats; details: Sprague-Dawley, rat, brain, iv, 10 mg/kg, i.v. 10 mg/kg, 30 min, under anaesthesia, nonfasting, individual animals, read-out: Conc. brain
observable: concentration at 30 min (ng/mL)
Answers are plain numbers, in ng/mL.

**Query** Reported concentration at 30 min for Cc1cccc(COc2nc(N)nc3nc[nH]c23)c1 [Compound 2, O^6-(3-methylbenzyl) guanine] : what is it?
**Result** 1890

----------
Experiment: Pharmacokinetics test using rats (brain permeability, blood and brain tissue by HPLC)
Format: in vivo, Sprague-Dawley rats
Details: Sprague-Dawley, rat, brain, iv, 10 mg/kg, i.v. 10 mg/kg, 30 min, under anaesthesia, fasting, average, read-out: Brain/Plasma ratio, Ave.
Procedure: Regarding O^6-(3-methylbenzyl) guanine (2) and O^6-(4-methylbenzyl) guanine (3) not labeled with ^11C synthesized by the above method (that is, cold), brain permeability was evaluated by the following method. After intravenous administration (10 mg/kg) of O^6-(3-methylbenzyl) guanine (2) or O^6-(4-methylbenzyl) guanine (3) to Sprague-Dawley rats, blood and brain tissues were collected after a predetermined time, and analyzed by HPLC.
observable: Kp at 0.5 h
One number for each entry.

**Query** Reported Kp at 0.5 h for Cc1cccc(COc2nc(N)nc3nc[nH]c23)c1 : what is it?
**Result** 0.303

----------
experiment: Pharmacokinetics test using rats (brain permeability, blood and brain tissue by HPLC); assay type: in vivo, Sprague-Dawley rats; conditions: Sprague-Dawley, rat, brain, iv, 10 mg/kg, i.v. 10 mg/kg, 30 min, under anaesthesia, fasting, individual animals, read-out: Brain/Plasma ratio
observable: Kp at 0.5 h

**Query** Reported Kp at 0.5 h for Cc1cccc(COc2nc(N)nc3nc[nH]c23)c1 : what is it?
**Result** 0.336

----------
test: Pharmacokinetics test using rats (brain permeability, blood and brain tissue by HPLC); format: in vivo, Sprague-Dawley rats; settings: Sprague-Dawley, rat, brain, iv, 10 mg/kg, i.v. 10 mg/kg, 44 min, under anaesthesia, fasting, read-out: Conc. brain
observable: concentration at 44 min (ng/mL)
Give bare numbers, in ng/mL.

**Query** Reported concentration at 44 min for Cc1ccc(COc2nc(N)nc3nc[nH]c23)cc1 [Compound 3, O^6-(4-methylbenzyl) guanine] : what is it?
**Result** 470

----------
assay: Pharmacokinetics test using rats (brain permeability, blood and brain tissue by HPLC); type: in vivo, Sprague-Dawley rats; conditions: Sprague-Dawley, rat, plasma, iv, 10 mg/kg, average (n = 3), 30 min after i.v. 10 mg/kg of 3, rat under anaesthesia and fasting; other rats than brain sample; read-out: Conc. Plasma
observable: concentration at 30 min

**Query** Reported concentration at 30 min for Cc1ccc(COc2nc(N)nc3nc[nH]c23)cc1 : what is it?
**Result** 2480 ng/mL

----------
experiment: Pharmacokinetics test using rats (brain permeability, blood and brain tissue by HPLC); assay type: in vivo, Sprague-Dawley rats; details: Sprague-Dawley, rat, brain, iv, 10 mg/kg, i.v. 10 mg/kg, brain 44 min, plasma 30 min, under anaesthesia, fasting, read-out: Brain/Plasma ratio
observable: Kp

**Query** Reported Kp for Cc1ccc(COc2nc(N)nc3nc[nH]c23)cc1 : what is it?
**Result** 0.189
